The origin of these recorded values is the RNAGym collection of RNA variant scans (doi:10.7554/elife.80360).

# self-cleavage listing for each entry below
B1: Twister Ribozyme (parent)
chain: AACACUGCCAAUGCCGGUCCCAAGCCCGGAUAAAAGUGGAGGGGGCGG

- Variants of: B1
- protocolNotes: self-cleavage, relative activity (ratio to wild type); higher = more cleavage; co-transcriptional
The response must contain the number and no unit.

Here are 5 variants together with their reported answers.
[[record]]
recordsequence = "AACAUUGCCAAUGCCGGUACCAAGCCCGGAUAAAAGUGGAGGGGGCGG [C5U C19A]"
reportedmetric = "self-cleavage"
observedvalue = 0.145

[[record]]
recordsequence = "AACACUUCCAAUGCCGGUCCCAAGCCCGGAUCAAAGUGGAGGGGGCGG [G7U A32C]"
reportedmetric = "self-cleavage"
observedvalue = 0.0917

[[record]]
recordsequence = "AACACUGCCAAUGCCGGUCCCAAGCCCGGACAAAAGUGAAGGGGGCGG [U31C G39A]"
reportedmetric = "self-cleavage"
observedvalue = 0.456

[[record]]
recordsequence = "GACACUGCCAAUGCCGGUCCCAAGCCCGGAUAAAAGUGGAGGGGACGG [A1G G45A]"
reportedmetric = "self-cleavage"
observedvalue = 0.32

[[record]]
recordsequence = "AGCACUGCCAAUCCCGGUCCCAAGCCCGGAUAAAAGUGGAGGGGGCGG [A2G G13C]"
reportedmetric = "self-cleavage"
observedvalue = 0.0608


Requested field: self-cleavage. Item: AACCAUGCCAAUGCCGGUCCCAAGCCCGGAUAAAAGUGGAGGGGGCGG [A4C C5A]
0.0937

Can you look up the measured self-cleavage of AACGCUGCCAAUGCCGGUCCCAAGCCCGGAUAAAUGUGGAGGGGGCGG [A4G A35U] for me?
0.844

Name the recorded self-cleavage for AUCAGUGCCAAUGCCGGUCCCAAGCCCGGAUAAAAGUGGAGGGGGCGG [A2U C5G] .
0.172

Name the reported self-cleavage value associated with the variant AACACUGCCAAUGCCGGUGUCAAGCCCGGAUAAAAGUGGAGGGGGCGG [C19G C20U]
0.117

self-cleavage for AACACUGCCAAUGCCGGUCCCAAGCCCUGAUCAAAGUGGAGGGGGCGG [G28U A32C] ?
0.716

Which self-cleavage value belongs to AACACUGCCAAUGCCGGUCCCAUGCCCGGAUAAAAGUCGAGGGGGCGG [A23U G38C] ?
0.499

I have this variant here, AACACUGCCAAUGCAGGUCCCAAGCCCGGAUAAAAGUGGAUGGGGCGG [C15A G41U] , and I need its recorded self-cleavage.
0.177

Record request: self-cleavage value, item AACACUGCCAAUGCCGAUCCCAAGCCCGCAUAAAAGUGGAGGGGGCGG [G17A G29C]
0.222

Recorded self-cleavage for AACACUGCCAAUGCCGGUCCCAAGCCAGGAUAAAAGUGGAGGGCGCGG [C27A G44C] , please?
0.298

What measured self-cleavage goes with AACACUGCCAAUGCCGGCCCCAAGCCCGGAUCAAAGUGGAGGGGGCGG [U18C A32C] ?
0.486

Value lookup for self-cleavage; key = AACACUGCCAAUGGCGGUCCCAAGCCCGGAUAAAAGUGGAGGGGACGG [C14G G45A]
0.113

Entry AACACUGCCAAUGCCGGUCGCAAGCCCGGAUAAAAGUGGAGAGGGCGG [C20G G42A] has what self-cleavage?
0.083

What value of self-cleavage has been recorded for this entry: AACACUGCCAAUCCCGGUCCGAAGCCCGGAUAAAAGUGGAGGGGGCGG [G13C C21G]
0.0833

So what does the record say about self-cleavage for AACACUGCCUAUGCCGGUCCCAAGCCCGGAUAAAAGUGGACGGGGCGG [A10U G41C] ?
0.239
